Biological target: α4β1 integrin (Jurkat cell adhesion to immobilized CS-1 derived peptide CLHPGEILDVPST) (Homo sapiens, UniProt P05556+P13612)
Construct: 100 μl of Jurkat cells (2.5×10^6 cells/ml) in DMEM plus BSA
Sequence (P13612 34-1032): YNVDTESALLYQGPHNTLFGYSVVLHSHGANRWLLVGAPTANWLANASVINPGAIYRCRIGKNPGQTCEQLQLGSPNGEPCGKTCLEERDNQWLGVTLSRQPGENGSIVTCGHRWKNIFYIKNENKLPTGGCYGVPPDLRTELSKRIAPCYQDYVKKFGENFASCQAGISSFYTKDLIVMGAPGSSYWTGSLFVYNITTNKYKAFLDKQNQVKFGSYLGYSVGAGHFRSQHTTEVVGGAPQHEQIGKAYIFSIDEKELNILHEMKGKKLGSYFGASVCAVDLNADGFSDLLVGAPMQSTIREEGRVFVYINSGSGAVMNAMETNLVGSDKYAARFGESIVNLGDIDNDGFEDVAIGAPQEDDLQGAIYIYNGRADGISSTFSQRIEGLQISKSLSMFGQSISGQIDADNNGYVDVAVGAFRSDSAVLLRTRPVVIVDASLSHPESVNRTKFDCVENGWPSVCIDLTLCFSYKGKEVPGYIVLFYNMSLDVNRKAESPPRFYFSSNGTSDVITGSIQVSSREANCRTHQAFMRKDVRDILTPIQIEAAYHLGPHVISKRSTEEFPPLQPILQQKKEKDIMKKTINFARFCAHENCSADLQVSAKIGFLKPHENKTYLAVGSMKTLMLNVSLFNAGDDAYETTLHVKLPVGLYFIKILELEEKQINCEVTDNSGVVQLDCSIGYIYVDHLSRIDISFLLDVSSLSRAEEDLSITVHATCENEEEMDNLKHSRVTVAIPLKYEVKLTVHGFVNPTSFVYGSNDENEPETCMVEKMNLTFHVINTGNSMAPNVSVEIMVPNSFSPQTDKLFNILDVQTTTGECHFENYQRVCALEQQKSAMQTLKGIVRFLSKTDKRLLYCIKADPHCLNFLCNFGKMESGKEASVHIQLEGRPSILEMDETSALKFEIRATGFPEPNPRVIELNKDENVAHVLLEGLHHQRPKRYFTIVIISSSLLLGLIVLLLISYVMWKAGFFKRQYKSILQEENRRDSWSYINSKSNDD
Sequence (P05556 21-798): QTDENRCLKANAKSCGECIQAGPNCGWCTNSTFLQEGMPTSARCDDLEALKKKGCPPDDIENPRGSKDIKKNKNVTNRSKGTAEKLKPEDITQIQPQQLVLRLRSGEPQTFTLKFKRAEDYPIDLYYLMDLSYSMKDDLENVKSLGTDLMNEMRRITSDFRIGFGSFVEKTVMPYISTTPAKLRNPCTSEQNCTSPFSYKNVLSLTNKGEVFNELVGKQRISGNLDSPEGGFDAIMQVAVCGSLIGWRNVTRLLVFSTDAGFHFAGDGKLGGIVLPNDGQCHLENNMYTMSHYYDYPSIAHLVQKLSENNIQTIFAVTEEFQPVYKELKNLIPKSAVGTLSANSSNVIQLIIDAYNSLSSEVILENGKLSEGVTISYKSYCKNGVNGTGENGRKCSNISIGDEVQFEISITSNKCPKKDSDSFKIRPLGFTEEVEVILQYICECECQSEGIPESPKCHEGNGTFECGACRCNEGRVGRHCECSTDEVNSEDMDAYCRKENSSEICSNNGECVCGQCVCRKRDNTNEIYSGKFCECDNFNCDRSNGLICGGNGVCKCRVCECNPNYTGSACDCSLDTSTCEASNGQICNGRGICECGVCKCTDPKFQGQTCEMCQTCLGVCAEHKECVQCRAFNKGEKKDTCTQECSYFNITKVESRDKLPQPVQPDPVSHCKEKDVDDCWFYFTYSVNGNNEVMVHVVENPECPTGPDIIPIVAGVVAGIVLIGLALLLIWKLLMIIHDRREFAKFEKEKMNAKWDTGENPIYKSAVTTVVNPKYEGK
Assay: Jurkat-CS-1 assay
Conditions: Jurkat cells on CS-1 peptide coated plates; read-out: JK/CS-1 (Jurkat CS-1 Assay IC50 value range)
The entries below come with measured IC50 values attached.

Some solved cases for reference:
1) COC(=O)[C@H](Cc1ccc(NC(=O)c2c(Cl)cccc2Cl)cc1)NC(=O)[C@@H]1N(C(C)=O)C(C)(C)SC1(C)C: ≥ 0.75 µM
2) COC(=O)[C@H](Cc1ccc(NC(=O)c2c(Cl)cccc2Cl)cc1)NC(=O)[C@H]1CSCN1C(C)=O: 0.05 to 0.75 µM
3) O=C(CCC1(C(=O)O)CCC(=O)N1)N[C@@H](Cc1ccc(OCc2c(Cl)cccc2Cl)cc1)C(=O)O (stereo partly drawn): 0.05 to 0.75 µM
4) O=C(O)c1cncc(C(=O)N2CSC[C@@H]2C(=O)N[C@@H](Cc2ccc(NC(=O)c3c(Cl)cccc3Cl)cc2)C(=O)O)c1: 0.05 to 0.75 µM
5) CCOC(=O)N1[C@@H](C(=O)N[C@@H](Cc2ccc(NC(=O)c3c(Cl)cccc3Cl)cc2)C(=O)O)CSC12CCCC2 (relative stereo): 0.05 to 0.75 µM

For record CCS(=O)(=O)N1CSC[C@@H]1C(=O)N[C@@H](Cc1ccc(NC(=O)c2c(Cl)cccc2Cl)cc1)C(=O)O the listed IC50 is ≤ 0.05 µM
